# Target: BamL (Bacillus velezensis, UniProt D3VMM1)
# Sequence (D3VMM1 1-270): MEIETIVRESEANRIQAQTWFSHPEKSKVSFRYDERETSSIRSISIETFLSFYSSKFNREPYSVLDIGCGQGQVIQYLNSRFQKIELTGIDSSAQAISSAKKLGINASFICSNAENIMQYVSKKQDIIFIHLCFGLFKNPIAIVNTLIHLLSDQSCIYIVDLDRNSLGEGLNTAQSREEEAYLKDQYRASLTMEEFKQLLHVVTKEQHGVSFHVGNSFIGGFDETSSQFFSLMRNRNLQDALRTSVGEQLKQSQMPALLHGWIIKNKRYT
# Method Description: ITC binding assay with BamL
# Run Conditions: BamL
Assay Readout: pKd
Please keep in mind that pKd is minus log10 of the molar concentration; only the number is needed.

>>> experimental_value("CCOC(=O)c1csc(-c2nc(-c3csc([C@@H](N)CCCNC(=N)N)n3)oc2C)n1 [compound 3]")
5.77

API: the following record is the query input.
Field request: pKd | item: C=CCOC(=O)c1csc([C@@H](N)CCCNC(=N)N)n1 [compound 2]
5.66
